Overview of reported Activity across a group of compounds:
experimentalSystem: Glutathione reductase, mitochondrial (Homo sapiens) (UniProt P00390)
Sequence (P00390 whole entry): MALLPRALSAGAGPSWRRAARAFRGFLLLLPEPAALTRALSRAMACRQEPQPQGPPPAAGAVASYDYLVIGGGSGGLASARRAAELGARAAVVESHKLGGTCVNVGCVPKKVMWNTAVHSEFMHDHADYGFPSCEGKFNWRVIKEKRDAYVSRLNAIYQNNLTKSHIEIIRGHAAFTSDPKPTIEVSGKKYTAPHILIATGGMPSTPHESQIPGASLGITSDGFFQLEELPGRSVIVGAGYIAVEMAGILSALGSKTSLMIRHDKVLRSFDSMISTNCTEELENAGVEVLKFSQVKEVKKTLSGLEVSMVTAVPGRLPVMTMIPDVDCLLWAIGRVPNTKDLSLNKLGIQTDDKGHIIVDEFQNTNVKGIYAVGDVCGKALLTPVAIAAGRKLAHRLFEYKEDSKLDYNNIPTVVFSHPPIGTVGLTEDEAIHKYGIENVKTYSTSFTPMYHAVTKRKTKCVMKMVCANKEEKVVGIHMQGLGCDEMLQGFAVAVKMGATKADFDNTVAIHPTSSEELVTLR
assayDetails: Glutathione reductase activity was measured after incubation with a conc. of 500 uM
Type: functional
Report as a plain number; the unit % is understood.

Please review the entries below; each comes with its answer.
# compound, endpointName, recordedValue
records = [
    ("O=C(NCCCl)Nc1ccc(I)cc1", "Activity", 98),
    ("CC(C)(C)c1ccc(NC(=O)NCCCl)cc1", "Activity", 100),
    ("O=NN(CCCl)C(=O)NCCCl", "Activity", 20),
    ("CCC(C)c1ccc(NC(=O)NCCCl)cc1 (configuration not stated)", "Activity", 100),
    ("CCCCCc1ccc(NC(=O)NCCCl)cc1", "Activity", 99),
    ("CC(C)c1ccc(NC(=O)NCCCl)cc1", "Activity", 100),
]

Q. Return Activity (reported value) for this compound: CCCCCCc1ccc(NC(=O)NCCCl)cc1
A. 99

* * *

Test system: LoVo
assayDetails: Dose to inhibit cell growth determined against LoVo cell line of human adenocarcinoma
Assay type: functional, cell-based
Rule for this label: fulfilled means IC50 is less than 20 µM; not fulfilled means IC50 is at least 20 µM.

Use these answered entries as a reference point.
# smilesInput, cat
records = [
    ("O=C(NCCCl)Nc1ccc2c(c1)CCC2", "fulfilled"),
    ("CCCCCCCc1ccc(NC(=O)NCCCl)cc1", "fulfilled"),
    ("CCCCCc1ccc(NC(=O)NCCCl)cc1", "fulfilled"),
    ("O=C(NCCCl)Nc1ccc(Br)cc1", "fulfilled"),
]

Q. Bench note: check whether O=C(NCCCl)Nc1ccc(Cl)cc1 shows IC50 below 20 µM
A. not fulfilled

Q. In plain terms, does CC(C)(C)c1ccc(NC(=O)NCCCl)cc1 come in under 20 µM for IC50?
A. fulfilled

Q. Would you kindly verify if IC50 of O=C(NCCCl)Nc1cccc(I)c1 is strictly less than 20 µM?
A. not fulfilled

* * *

Examples of compounds with documented IC50 follow.
System: HT-29
assayDetails: Dose required to inhibit cell growth was determined against HT-29 cell line of human adenocarcinoma
Format: functional, cell-based
Report the figure along with its unit, number first.

Previously resolved entries follow.
# compound, IC50
records = [
    ("CCNC(=O)Nc1ccc(C(C)CC)cc1 (centres undefined)", "132 µM"),
    ("CNC(=O)Nc1ccc(C(C)(C)C)cc1", "196 µM"),
    ("O=C(NCCCl)Nc1ccc(C2CCCCC2)cc1", "38 µM"),
    ("CCCCc1ccc(NC(=O)NCCCl)cc1", "22 µM"),
    ("Cc1cc(C)cc(NC(=O)NCCCl)c1", "20 µM"),
]

Would you kindly look at the next entry?
Q. Look up and state reported IC50 for O=NN(CCCl)C(=O)NCCCl
A. 17 µM

* * *

assayDetails: Alkylating activity by using 4-(4-nitrobenzyl)-pyridine(NBP) colorimetric assay
endpointName: Activity
Answer format: value, then unit.

Field: example entries. Status: answers known.
# compound, recordedValue
rows = [
    ("CC(C)(C)c1ccc(NC(=O)NCCCl)cc1", "3.1 A570 min-1"),
    ("CCCCCCc1ccc(NC(=O)NCCCl)cc1", "3.1 A570 min-1"),
    ("CCCCCc1ccc(NC(=O)NCCCl)cc1", "2.9 A570 min-1"),
    ("O=C(NCCCl)Nc1ccc2c(c1)CCC2", "3.5 A570 min-1"),
    ("CC(C)c1ccc(NC(=O)NCCCl)cc1", "3 A570 min-1"),
]

Q. Answer with the recorded Activity of CCC(C)c1ccc(NC(=O)NCCCl)cc1 (stereo unspecified) only.
A. 3.1 A570 min-1
